# system tested: Wee1-like protein kinase (Homo sapiens)
# run description: Inhibition of recombinant human Wee1 (214 to end residues) incubated for 1 hr in presence of tracer 178 by fluorescence based assay
pIC50: −log10 of the molar value.
Label Met when pIC50 is at or above 7; otherwise label Not met.

# smiles code, classification
data = [
    ("N[C@H]1CCN(c2ccc(Nc3cc4ncn(-c5c(Cl)cccc5Cl)c(=O)c4cn3)cc2)C1", "Met"),
    ("O=c1c2cnc(Nc3ccc(N4CCN(CCO)CC4)cc3)cc2ncn1-c1c(Cl)cccc1Cl", "Met"),
    ("C[C@@H]1CN(c2ccc(Nc3cc4ncn(-c5c(Cl)cccc5Cl)c(=O)c4cn3)cc2C(F)(F)F)C[C@H](C)N1", "Not met"),
    ("N[C@@H]1CCCN(c2ccc(Nc3cc4ncn(-c5c(Cl)cccc5Cl)c(=O)c4cn3)cc2)C1", "Met"),
    ("CC(C)N1CCN(c2ccc(Nc3cc4ncn(-c5c(Cl)cccc5Cl)c(=O)c4cn3)cc2)CC1", "Met"),
    ("N[C@@H]1CCN(c2ccc(Nc3cc4ncn(-c5c(Cl)cccc5Cl)c(=O)c4cn3)cc2)C1", "Met"),
    ("O=c1c2cnc(Nc3ccc(N4CCC(CO)CC4)cc3)cc2ncn1-c1c(Cl)cccc1Cl", "Not met"),
    ("CN1CCN(c2ccc(Nc3cc4ncn(-c5c(Cl)cccc5Cl)c(=O)c4cn3)cc2)CC1", "Met"),
    ("CN1CCN(c2ccc(Nc3cc4ncn(-c5c(F)cccc5Cl)c(=O)c4cn3)cc2)CC1", "Not met"),
    ("CN1CCN(c2ccc(Nc3cc4ncn(-c5ccccc5F)c(=O)c4cn3)cc2)CC1", "Not met"),
]

* * *

# run description: Metabolic stability in mouse liver microsomes assessed as parent compound remaining preincubated with NADPH for 5 mins followed by compound addition and measured upto 90 mins by LC-MS/MS analysis
# Type: ADME, Microsome
# measurement parameters: read-out: Stability
# remaining at 1.5 h per record follows
quantity measured: remaining at 1.5 h (%)

# smiles code, result operator, numeric result
rows = [
    ("CN(C)CCCNc1ccc(Nc2cc3ncn(-c4c(Cl)cccc4Cl)c(=O)c3cn2)cc1", "=", 22),
    ("O=c1c2cnc(Nc3ccc(N4CCNCC4)cc3)cc2ncn1-c1c(Cl)cccc1Cl", ">", 50),
    ("CC(=O)Nc1cc(Nc2cc3ncn(-c4c(Cl)cccc4Cl)c(=O)c3cn2)ccc1N1C[C@@H](C)N[C@@H](C)C1", "=", 60),
    ("C[C@@H]1CN(c2ccc(Nc3cc4ncn(-c5c(Cl)cccc5Cl)c(=O)c4cn3)cc2CO)C[C@H](C)N1", ">", 50),
    ("CN(C)CCN(C)c1ccc(Nc2cc3ncn(-c4c(Cl)cccc4Cl)c(=O)c3cn2)cc1", "=", 60),
]

* * *

# system tested: Wee1-like protein kinase (Homo sapiens)
# run description: Inhibition of recombinant human Wee1 (214 to end residues) incubated for 1 hr in presence of tracer 178 by fluorescence based assay
// NB: equality with 50 nM counts as label 0; only IC50 strictly below is label 1

# smiles code, classification
measured = [
    ("C[C@@H]1CN(c2ccc(Nc3cc4ncn(-c5c(Cl)cccc5Cl)c(=O)c4cn3)cc2)C[C@H](C)N1", "label 1"),
    ("CC(=O)N1CCN(c2ccc(Nc3cc4ncn(-c5c(Cl)cccc5Cl)c(=O)c4cn3)cc2)CC1", "label 0"),
    ("N[C@H]1CCCN(c2ccc(Nc3cc4ncn(-c5c(Cl)cccc5Cl)c(=O)c4cn3)cc2)C1", "label 1"),
    ("CC(=O)Nc1cc(Nc2cc3ncn(-c4c(Cl)cccc4Cl)c(=O)c3cn2)ccc1N1C[C@@H](C)N[C@@H](C)C1", "label 1"),
    ("O=c1c2cnc(Nc3ccc(N[C@@H]4CN5CCC4CC5)cc3)cc2ncn1-c1c(Cl)cccc1Cl", "label 0"),
    ("Cc1cccc(Cl)c1-n1cnc2cc(Nc3ccc(N4CCN(C)CC4)cc3)ncc2c1=O", "label 0"),
    ("COc1cc(Nc2cc3ncn(-c4c(Cl)cccc4Cl)c(=O)c3cn2)ccc1N1C[C@@H](C)N[C@@H](C)C1", "label 0"),
    ("O=c1c2cnc(Nc3ccc(C4CCNCC4)cc3)cc2ncn1-c1c(Cl)cccc1Cl", "label 0"),
    ("CN(C)CCOc1ccc(Nc2cc3ncn(-c4c(Cl)cccc4Cl)c(=O)c3cn2)cc1", "label 0"),
    ("CN1CCC(Nc2ccc(Nc3cc4ncn(-c5c(Cl)cccc5Cl)c(=O)c4cn3)cc2)CC1", "label 1"),
    ("CN1CCN(c2ccc(Nc3cc4ncn(-c5c(Cl)cccc5Cl)c(=O)c4cn3)nc2)CC1", "label 1"),
    ("CN1CCN(Cc2ccc(Nc3cc4ncn(-c5c(Cl)cccc5Cl)c(=O)c4cn3)cc2)CC1", "label 0"),
    ("CN(C)CCCN(C)c1ccc(Nc2cc3ncn(-c4c(Cl)cccc4Cl)c(=O)c3cn2)cc1", "label 0"),
    ("CN(CCCN)c1ccc(Nc2cc3ncn(-c4c(Cl)cccc4Cl)c(=O)c3cn2)cc1", "label 0"),
    ("C[C@@H]1CN(c2ccc(Nc3cc4ncn(-c5c(Cl)cccc5Cl)c(=O)c4cn3)nc2)C[C@H](C)N1", "label 1"),
    ("C[C@@H]1CN(c2ccc(Nc3cc4ncn(-c5c(Cl)cccc5Cl)c(=O)c4cn3)cc2CO)C[C@H](C)N1", "label 1"),
    ("NCC1CCN(c2ccc(Nc3cc4ncn(-c5c(Cl)cccc5Cl)c(=O)c4cn3)cc2)CC1", "label 0"),
    ("O=c1c2cnc(Nc3ccc(N4CCNCC4)cc3)cc2ncn1-c1c(Cl)cccc1Cl", "label 1"),
]

* * *

# system tested: Wee1-like protein kinase (Homo sapiens, UniProt P30291)
# Sequence (P30291 whole entry): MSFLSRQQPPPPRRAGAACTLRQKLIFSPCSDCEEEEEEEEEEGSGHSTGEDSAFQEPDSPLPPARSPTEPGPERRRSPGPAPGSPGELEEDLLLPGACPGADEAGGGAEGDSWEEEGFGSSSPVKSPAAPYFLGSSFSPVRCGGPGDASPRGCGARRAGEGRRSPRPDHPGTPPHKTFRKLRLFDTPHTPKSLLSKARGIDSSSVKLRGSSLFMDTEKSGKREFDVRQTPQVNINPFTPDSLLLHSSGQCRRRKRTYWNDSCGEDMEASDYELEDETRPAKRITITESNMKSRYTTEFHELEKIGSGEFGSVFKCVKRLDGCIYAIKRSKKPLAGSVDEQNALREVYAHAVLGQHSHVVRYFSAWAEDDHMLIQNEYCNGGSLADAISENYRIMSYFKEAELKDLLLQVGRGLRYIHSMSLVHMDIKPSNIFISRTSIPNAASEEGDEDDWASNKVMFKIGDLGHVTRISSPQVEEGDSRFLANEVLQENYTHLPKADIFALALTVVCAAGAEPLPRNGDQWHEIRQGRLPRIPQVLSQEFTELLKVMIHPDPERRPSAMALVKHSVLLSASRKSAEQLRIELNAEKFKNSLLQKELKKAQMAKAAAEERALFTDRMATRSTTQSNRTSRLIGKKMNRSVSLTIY
# run description: Inhibition of recombinant human Wee1 (214 to end residues) incubated for 1 hr in presence of tracer 178 by fluorescence based assay
pIC50: −log10 of the molar value.
quantity measured: pIC50

# smiles code, quantity measured, numeric result
records = [
    ("C[C@@H]1CN(c2ccc(Nc3cc4ncn(-c5c(Cl)cccc5Cl)c(=O)c4cn3)cc2CNC2CC2)C[C@H](C)N1", "pIC50", 6.97),
    ("CCN1CCN(c2ccc(Nc3cc4ncn(-c5c(Cl)cccc5Cl)c(=O)c4cn3)cc2)CC1", "pIC50", 7.07),
    ("CN(C)CCCNc1ccc(Nc2cc3ncn(-c4c(Cl)cccc4Cl)c(=O)c3cn2)cc1", "pIC50", 7.10),
    ("CN(C)C1CCN(c2ccc(Nc3cc4ncn(-c5c(Cl)cccc5Cl)c(=O)c4cn3)cc2)CC1", "pIC50", 7.14),
    ("C[C@@H]1CN(c2ccc(Nc3cc4ncn(-c5c(Cl)cccc5Cl)c(=O)c4cn3)cc2C#N)C[C@H](C)N1", "pIC50", 6.79),
    ("O=c1c2cnc(Nc3ccc(N4CCC(O)CC4)cc3)cc2ncn1-c1c(Cl)cccc1Cl", "pIC50", 7.02),
    ("NC1CCN(c2ccc(Nc3cc4ncn(-c5c(Cl)cccc5Cl)c(=O)c4cn3)cc2)CC1", "pIC50", 7.19),
    ("CN1CCC(Oc2ccc(Nc3cc4ncn(-c5c(Cl)cccc5Cl)c(=O)c4cn3)cc2)CC1", "pIC50", 7.03),
    ("CN(C)CCN(C)c1ccc(Nc2cc3ncn(-c4c(Cl)cccc4Cl)c(=O)c3cn2)cc1", "pIC50", 7.15),
    ("O=c1c2cnc(Nc3ccc(N4CCN(C5CC5)CC4)cc3)cc2ncn1-c1c(Cl)cccc1Cl", "pIC50", 7.01),
    ("O=c1c2cnc(Nc3ccc(NC4CCNCC4)cc3)cc2ncn1-c1c(Cl)cccc1Cl", "pIC50", 7.11),
]
